experiment: The compound was tested in vitro for its ability to displace [3H]PN-200-110 from Calcium Channel in rat brain membranes.; assay type: cell membranes
Reported Metric: pKi
Give bare numbers, as −log10 of the molar value.

Solved cases below.
{"Molecule": "CCCCOP(=O)(CC(CCc1ccccc1)OC(C)=O)OCCCC (configuration not stated)", "Numeric Result": 7.26}
{"Molecule": "CCCCCC(=O)OC(CCc1ccccc1)CP(=O)(OCCCC)OCCCC (configuration not stated)", "Numeric Result": 7.29}

## Task // lookup pKi for CCCCCC(=O)OC(Cc1ccccc1)CP(=O)(OCCCC)OCCCC (configuration not stated)
## Result 6.25

###

assay: The compound was tested in vitro for its ability to displace [3H]PN-200-110 from Calcium Channel in rat brain membranes.; format: cell membranes
pKi: −log10 of the molar value.
Kindly state pKi for each of the entries shown.

Worked cases, pKi given:
{"Compound": "COC(=O)C1=C(C)NC(C)=C(C(=O)OC)C1c1ccccc1[N+](=O)[O-]", "pKi": 9.28}
{"Compound": "CCCCNC(=O)NC(CCc1ccccc1)CP(=O)(OCCCC)OCCCC (stereo not given)", "pKi": "< 6.00"}

Items follow; give pKi for each.
1. CCCCOP(=O)(CC(CCc1ccccc1)OC(=O)C(C)(C)C)OCCCC (stereo not given)
2. CCCCOP(=O)(CC(CCc1ccccc1)NP(=O)(OCC)OCC)OCCCC (stereo not given)
3. CCCCOP(=O)(CC(CCOc1ccccc1)CP(=O)(OCCCC)OCCCC)OCCCC

## Result
1: < 6.00; 2: < 6.00; 3: 7.64

Can you give me pKi for all of these, one by one?
1. CCCCOP(=O)(CC(CCc1ccccc1)NS(=O)(=O)c1ccc(C)cc1)OCCCC (stereo not given)
2. CCCCCC(=O)OC(CCCc1ccccc1)CP(=O)(OCCCC)OCCCC (stereo not given)
3. CCCCOP(=O)(CC(CCc1ccccc1)OP(=O)(OCCCC)OCCCC)OCCCC (stereo not given)

## Result
["< 6.00", "< 6.00", 6.41]

Your task in this section: give pKi for each listed record.
1. CCCCOP(=O)(CC(CCc1ccccc1)OC(=O)c1ccccc1)OCCCC (stereo not given)
2. CCCCNC(=O)OC(CCc1ccccc1)CP(=O)(OCCCC)OCCCC (stereo not given)

## Result
1. < 6.00
2. < 6.00

Source: ChEMBL document CHEMBL1126818
